tested on: HSC1 (primary human Schwann cells); assay: % inhibition of CellTiter-Glo viability at highest tested concentration (72 h), relative to DMSO and benzethonium chloride controls; higher = more inhibition
experimental endpoint: % inhibition (%)
Only the number, expressed in %, is required.

Request the reported % inhibition associated with CCC1(c2ccc(N)cc2)CCC(=O)NC1=O (configuration not stated) [Aminoglutethimide] (max concentration tested 10000 nM)
8.78

Request the reported % inhibition associated with C=CCn1c(=O)c2cnc(Nc3ccc(N4CCN(C)CC4)cc3)nc2n1-c1cccc(C(C)(C)O)n1 [MK1775] (max concentration tested 10000 nM)
67.6

Request the reported % inhibition associated with CC[C@]1(O)C[C@H]2CN(CCc3c([nH]c4ccccc34)[C@@](C(=O)OC)(c3cc4c(cc3OC)N(C=O)[C@H]3[C@@](O)(C(=O)OC)[C@H](OC(C)=O)[C@]5(CC)C=CCN6CC[C@]43[C@@H]65)C2)C1 [Vincristine] (max concentration tested 1000 nM)
75.5

Request the reported % inhibition associated with O=C(/C=C/c1cccnc1)NCCCCC1CCN(C(=O)c2ccccc2)CC1 [Daporinad] (max concentration tested 1000 nM)
70.9

Request the reported % inhibition associated with Cn1c(CCCC(=O)O)nc2cc(N(CCCl)CCCl)ccc21 [Bendamustine] (max concentration tested 10000 nM)
5.73

Request the reported % inhibition associated with Nc1ccccc1NC(=O)c1ccc(CNC(=O)OCc2cccnc2)cc1 [Entinostat] (max concentration tested 10000 nM)
71.2

Request the reported % inhibition associated with Cc1ccc(NC(=O)c2ccc(CN3CCN(C)CC3)cc2)cc1Nc1nc(-c2cccnc2)cs1 [Masitinib] (max concentration tested 10000 nM)
65.1

====

tested on: S462; experiment: relative IC50 (inflection point of fitted dose-response curve, CellTiter-Glo viability, 72 h; top asymptote may be below 50% inhibition); higher = less potent
Each record's relative IC50 is compared with bin 0 = under 30 nM, bin 1 = from 30 nM up to 1000 nM, bin 2 = 1000 nM and over to give its class.

Into which bin does this compound go? `CCn1c(-c2nonc2N)nc2cnc(Oc3cccc(NC(=O)c4ccc(OCCN5CCOCC5)cc4)c3)cc21`
bin 2

Into which bin does this compound go? COc1cc2ncnc(Nc3ccc(F)c(Cl)c3)c2cc1OCCCN1CCOCC1 [Gefitinib]
bin 2

Into which bin does this compound go? CC(C)(C)c1cnc(CSc2cnc(NC(=O)C3CCNCC3)s2)o1 [SNS-032]
bin 0

Into which bin does this compound go? COc1cccc2c1C(=O)c1c(O)c3c(c(O)c1C2=O)C[C@@](O)(C(C)=O)C[C@@H]3O[C@H]1C[C@H](N)[C@H](O)[C@H](C)O1 [Daunorubicin]
bin 1

Into which bin does this compound go? COc1ccc(-c2ccc3c(N4CCOC[C@@H]4C)nc(N4CCOC[C@@H]4C)nc3n2)cc1CO [AZD8055]
bin 0

Into which bin does this compound go? COc1cc(Nc2c(C#N)cnc3cc(OCCCN4CCN(C)CC4)c(OC)cc23)c(Cl)cc1Cl [Bosutinib]
bin 2

Into which bin does this compound go? COc1cccc2cc(-c3nc([C@H]4CC[C@H](C(=O)O)CC4)n4ncnc(N)c34)[nH]c12 [OSI-027]
bin 1

Into which bin does this compound go? CC(=O)O[C@@]12CO[C@@H]1C[C@H](O)[C@@]1(C)C(=O)[C@H](O)C3=C(C)[C@@H](OC(=O)[C@H](O)[C@@H](NC(=O)OC(C)(C)C)c4ccccc4)C[C@@](O)([C@@H](OC(=O)c4ccccc4)[C@H]21)C3(C)C [Docetaxel]
bin 0

Into which bin does this compound go? `Nc1ncnc2c1c(COc1cccc(Cl)c1)nn2C1CCOCC1`
bin 2

Into which bin does this compound go? Nc1cccc2c1CN(C1CCC(=O)NC1=O)C2=O (stereo not given) [Lenalidomide]
bin 2

Into which bin does this compound go? Cn1cnc(-c2cc3nccc(Oc4ccc(NC(=S)NC(=O)Cc5ccccc5)cc4F)c3s2)c1 [MGCD-265]
bin 2

Into which bin does this compound go? O=C(O)C1(C(=O)O)CCC1.[NH2-].[NH2-].[Pt+2] [Carboplatin aq]
bin 2

Into which bin does this compound go? Cc1sc2c(c1C)C(c1ccc(Cl)cc1)=N[C@@H](CC(=O)OC(C)(C)C)c1nnc(C)n1-2 [(+)JQ1]
bin 1

Into which bin does this compound go? CC(=O)O[C@H]1C(=O)[C@@]2(C)[C@H]([C@H](OC(=O)c3ccccc3)[C@]3(O)C[C@H](OC(=O)[C@H](O)[C@@H](NC(=O)c4ccccc4)c4ccccc4)C(C)=C1C3(C)C)[C@]1(OC(C)=O)CO[C@@H]1C[C@@H]2O [Paclitaxel]
bin 0

Into which bin does this compound go? CNC(=O)c1ccc(N2C(=S)N(c3ccc(C#N)c(C(F)(F)F)c3)C(=O)C2(C)C)cc1F [Enzalutamide]
bin 2

Into which bin does this compound go? COc1cc2/c(=N/c3ccc(Br)cc3F)nc[nH]c2cc1OCC1CCN(C)CC1 [Vandetanib]
bin 2

Into which bin does this compound go? OC[C@H]1O[C@@H](n2cnc3c2N=CNC[C@H]3O)C[C@@H]1O [Pentostatin]
bin 2

Into which bin does this compound go? Cc1nc(Nc2ncc(C(=O)Nc3c(C)cccc3Cl)s2)cc(N2CCN(CCO)CC2)n1 [Dasatinib]
bin 1

Into which bin does this compound go? NC(=O)c1ccc(I)c([N+](=O)[O-])c1 [Iniparib]
bin 2

Into which bin does this compound go? C[C@@H](C(=O)O)c1ccc(-c2ccccc2)c(F)c1 [Tarenflurbil]
bin 2

Into which bin does this compound go? `Nc1nccc(-c2c(-c3ccc(F)cc3)ncn2C2CCCCC2)n1`
bin 2

Into which bin does this compound go? CCCS(=O)(=O)Nc1ccc(F)c(C(=O)c2c[nH]c3ncc(-c4ccc(Cl)cc4)cc23)c1F [Vemurafenib]
bin 2

Into which bin does this compound go? COC(=O)c1ccc2c(c1)NC(=O)/C2=C(\Nc1ccc(N(C)C(=O)CN2CCN(C)CC2)cc1)c1ccccc1 [Nintedanib]
bin 2

Into which bin does this compound go? O=C1CN2Cc3c(ccc(Cl)c3Cl)N=C2N1 [Anagrelide]
bin 2

====

test system: S1507-2; test: drug sensitivity score (DSS, CellTox-Green cytotoxicity, 72 h) (DSS (dimensionless)); higher = more cytotoxic; extreme values may be limits of the assay
drug sensitivity score values for the compounds below.
Give the figure by itself; no unit, no explanation.

See these solved cases before continuing.
Request the reported drug sensitivity score associated with CO[C@H]1C[C@@H]2CC[C@@H](C)[C@@](O)(O2)C(=O)C(=O)N2CCCC[C@H]2C(=O)O[C@H]([C@H](C)C[C@@H]2CC[C@@H](OP(C)(C)=O)[C@H](OC)C2)CC(=O)[C@H](C)/C=C(\C)[C@@H](O)[C@@H](OC)C(=O)[C@H](C)C[C@H](C)/C=C/C=C/C=C/1C [Ridaforolimus] (max concentration tested 100 nM)
0

Request the reported drug sensitivity score associated with O=[N+]([O-])c1ccc2c(c1)S(=O)(=O)C=C2 [Stattic] (max concentration tested 50000 nM)
5.93

Request the reported drug sensitivity score associated with Nc1ccccc1NC(=O)c1ccc(CNc2nccc(-c3cccnc3)n2)cc1 [Mocetinostat] (max concentration tested 10000 nM)
5.36

Request the reported drug sensitivity score associated with COc1cc(Nc2ncc(F)c(Nc3ccc4c(n3)NC(=O)C(C)(C)O4)n2)cc(OC)c1OC [Tamatinib] (max concentration tested 10000 nM)
0.0129

Request the reported drug sensitivity score associated with CCN(CC)CCCC(C)Nc1ccnc2cc(Cl)ccc12 (stereo not drawn) [Chloroquine aq] (max concentration tested 100000 nM)
18.3

More entries:
Request the reported drug sensitivity score associated with O=C1CCC(N2C(=O)c3ccccc3C2=O)C(=O)N1 (stereo not drawn) [Thalidomide] (max concentration tested 10000 nM)
0

Request the reported drug sensitivity score associated with CCC/C=C/C=C/C(=O)O[C@H]1/C(=C/C(=O)OC)C[C@H]2C[C@H]([C@@H](C)O)OC(=O)C[C@H](O)C[C@@H]3C[C@H](OC(C)=O)C(C)(C)[C@](O)(C[C@@H]4C/C(=C/C(=O)OC)C[C@H](/C=C/C(C)(C)[C@]1(O)O2)O4)O3 [Bryostatin 1] (max concentration tested 100 nM)
2.29

Request the reported drug sensitivity score associated with C=CC(=O)Nc1cc2c(Nc3ccc(F)c(Cl)c3)ncnc2cc1OCCCN1CCOCC1 [Canertinib] (max concentration tested 10000 nM)
5.1

Request the reported drug sensitivity score associated with Oc1ncc(N(CCCl)CCCl)c(O)n1 [Uracil mustard] (max concentration tested 10000 nM)
0

Request the reported drug sensitivity score associated with Nc1ncn([C@@H]2O[C@H](CO)[C@@H](O)[C@H]2O)c(=O)n1 [Azacitidine] (max concentration tested 10000 nM)
2.61

Request the reported drug sensitivity score associated with CC(C)(C)NC(=O)[C@H]1CC[C@H]2[C@@H]3CC[C@H]4NC(=O)C=C[C@]4(C)[C@H]3CC[C@]12C [Finasteride] (max concentration tested 10000 nM)
0.774

Request the reported drug sensitivity score associated with C[C@@H]1C[C@H]2[C@@H]3CCC4=CC(=O)C=C[C@]4(C)[C@@]3(F)[C@@H](O)C[C@]2(C)[C@@]1(O)C(=O)CO [Dexamethasone] (max concentration tested 10000 nM)
0

Request the reported drug sensitivity score associated with O=C(CCBr)N1CCN(C(=O)CCBr)CC1 [Pipobroman] (max concentration tested 10000 nM)
0

Reference source for all entries: the supplement of paper PMC5579334
